Test: folding stability dG unfold from trypsin proteolysis; higher = more stable
Result type: folding stability dG unfold (kcal/mol)
One number for each entry, in kcal/mol.

[
  {
    "Seq": "SAGGSAGGSAGGNVRNLDISLDPEEGTIKIKATLPENGQTWEITIPVQIPLPPPPPGDNSAGGSAGGSAGGS [r10_331_TrROS]",
    "folding stability dG unfold [kcal/mol]": 0.49
  }
]

Batch request: folding stability dG unfold for each of the following sequences.
1. SAGGSAGGSAGGMYRVEIETKGNKKVYIFPNLSPEELAKFLEDPKVVSYKVEKLSPEELESAGGSAGGSAGG [r7_502_JUSTAS]
2. SAGGSAGGSMEVNLKVTVTYPDGTVVELEIPKVSTEDGKSVEDVAKEIEALPDVKEVEVEIVESAGGSAGGS [r12_199_JUSTAS]
3. SAGGSAGGSPGKPKTIPVEMVFFNPEDGYFFEMRSEIYVPPDGNLQIDISIELYPVPPNAPLISAGGSAGGS [r12_116_TrROS]
4. SAGGSMTTPPTGEVQVFIDRKTDKWTIRIVDPNAPPTTEEVESEEEAEKVIAELEAKGYKVDTVEPLPSAGG [r13_727_JUSTAS]
5. SAGNIKISYDPDDGWLTITFPVAPGQEFSFKLNIMLPENGAKIKNVEVTGPLKDGQPVTITMKVTGIKPSAG [r5_737_TrROS]
6. SAGGSAMDAKVVDLSLPFTLSEDGSLTATVTIEFPDGSKVPIEIPGREDGELKLEEILAAAKEALGSAGGSA [r15_233_TrMRF]

Response:
[2.04, 0.847, 2.33, 0.658, 2.2, 0.553]

---

Experiment: folding stability dG unfold from chymotrypsin proteolysis; higher = more stable
folding stability dG unfold of 3 kcal/mol or higher: 1 (yes). Under 3 kcal/mol: 0 (no).

[
  {
    "Seq": "SGSSYLPLEDVKTEWKKNPNSDVYNYTTFLQTPSGEPISVTYDPKTGKITFNLPPGTTWRPGKKSEVKLESA [r9_509_JUSTAS]",
    "Class assignment": "0 (no)"
  },
  {
    "Seq": "SAMILLIKIENKNDGKEFIIEITPNKITIYDKKTGKKYEITVDGNTITIKINGKTYKAKIKEVIPEEELSAG [r14_208_TrROS_Hall]",
    "Class assignment": "1 (yes)"
  },
  {
    "Seq": "SAGGSAGGSAKLEYDDDYVEIEFKVPDGPIMIYIPDWGWMIWIWPGKEVTIRFPIPKPPDNSAGGSAGGSAG [r3_185_TrROS]",
    "Class assignment": "1 (yes)"
  }
]

Would you kindly look at the next entry?
Request: Is the recorded value of folding stability dG unfold equal to or greater than 3 kcal/mol for this sequence? SAGGSADENKKPMYFIMVKIEIKFGGKDHKIEIMIPLDNVEKLAKNIAEELGMEIKDVTVSLYPIDSAGGSA [r15_535_TrROS]
Response: 1 (yes)

---

Experiment: folding stability dG unfold (combined trypsin and chymotrypsin); higher = more stable
Field: folding stability dG unfold. Provide a value for each of the sequences that follow.
Answers are plain numbers, in kcal/mol.

Example sequences with recorded folding stability dG unfold:
[
  {
    "Seq": "SFTPEQVKDIAKTIANRMYDNGYEVEVDVEVEPVNNMPYVEIEFEWRDPDGQPWKFEIIIHPDGDIEIYPSA [r9_1027_TrROS]",
    "folding stability dG unfold, kcal/mol": 2.43
  },
  {
    "Seq": "SAGGSAGGPVKIHVHVNPEEGYYMIEVRSGNEPRHIMIPMDKEEIKSFIENLPPGIEVEIHPMPSAGGSAGG [r6_401_TrROS]",
    "folding stability dG unfold, kcal/mol": 1.4
  },
  {
    "Seq": "SAGGDEIAKEIANHAREQGYKVEVKVERDEDGMVKIDVEMSMPNGRRVTFSITINPDGIEIQSIEVTPSAGG [r13_203_TrROS]",
    "folding stability dG unfold, kcal/mol": 3.97
  },
  {
    "Seq": "SAGGSAGGSPLPYLTEDGEVQVVVRIDNSTGTTTVTLTGPDGKLLKTFSVSTDGPAFVVVRAGSAGGSAGGS [r12_960_TrMRF]",
    "folding stability dG unfold, kcal/mol": 1.72
  },
  {
    "Seq": "SAGGSAGGSAGGGMTTVTIEVPPELSEEEVRRAAAELVAAGRPVPVTVERLPEDRVVVVTSAGGSAGGSAGG [r7_283_JUSTAS]",
    "folding stability dG unfold, kcal/mol": -0.0348
  },
  {
    "Seq": "SAGGSAGGSEEKKIKIKIKIERDPENPNTYRITIEDEETGERYELEITVPPPKPKVFFFPKKKSAGGSAGGS [r12_985_TrROS_Hall]",
    "folding stability dG unfold, kcal/mol": 2.18
  }
]

# map each sequence to its folding stability dG unfold
1. SIVIRLPDGKPLMIQLTMYYPPDNDKIEIPVEIYDGGKPRTFEHEIPPGDNKPVTFSLHIPLPPGAYIKISA [r9_973_TrROS]
2. SAGGSAGGSMPFKIDVEVERHPEDNMYQVEITFPGNREIPIMVDDPSDPEKAKNIAKEFAKQLSAGGSAGGS [r12_1012_TrROS]

Response:
1: 2.38; 2: -0.0883

Below are 4 sequences. Give each one its folding stability dG unfold.
1. SAGGDPEEQNKMMERMEKMKPIEPEPVRIPNGIEIEYWPAYGFVEIETWYRDPDGEPKPIGEGWVPVSAGGS [r16_243_TrROS]
2. SAGGSAMDPSKLVRKKVRFRVVDPNGKPLGEIDIEVEFPGGVSEEEAEELLRELIAALAPPAGVEGSAGGSA [r15_310_TrMRF]
3. KKEEEIKKLEEAVREALKKKGLEVKIVEVKKNKNGEYTLTIELKDGKKIEITIKKEKMTVEDILKKLKELLS [r1_279_TrROS_Hall]
4. GEFVSVESVERLPDGTLVVKIKYKPPSPDTPVTVTVSHPDSSVTFTMDPTSSTITVTVPPSVSDVSVTVVGS [r1_428_JUSTAS]

Response:
[-0.147, 2.73, 4.13, 3.29]

---

Test: folding stability dG unfold (combined trypsin and chymotrypsin); higher = more stable
Exercise: state measured folding stability dG unfold for each of the sequences provided.
Numbers only, in kcal/mol.

Examples from the recorded data:
[
  {
    "Seq": "SAGEVELTEDGSLKITETIEVNGLLFKVTVTIDENGNISVSIEKVEVLPPPPPVEIKLEDEEAKKKALKSAG [r5_715_TrROS_Hall]",
    "Reported measurement": 1.16
  },
  {
    "Seq": "SAGGSAGGEIKAKVPYEKYPKYYKVKVEIYDPNTKKKIEYEALFPKGTKISAEEIAKKIVKKIKSAGGSAGG [r6_233_TrMRF]",
    "Reported measurement": 1.26
  },
  {
    "Seq": "SAGSSRIIFYPENNTYLIETPEGSFTLPETVTTTTPAPTGENPDRTVPRPTTTYVATELSLEEAEKLLSSAG [r5_234_JUSTAS]",
    "Reported measurement": -0.149
  },
  {
    "Seq": "SAGGKKKITITIEEVEELENGPLVYRVTIEVDGKTYEILIEADSLEEAKAAAEKLAEELNVEVTIEPVSAGG [r13_750_TrROS_Hall]",
    "Reported measurement": 3.86
  },
  {
    "Seq": "SAGGNGRKKVKIDISIMIPIPPNDMPPEQRMKLAKELAERIARSLARKEGADPDKIDEVKVRFHIFPWSAGG [r13_5_TrROS]",
    "Reported measurement": 2.44
  }
]

Turning now to a further sequence:
Request: Any idea what its folding stability dG unfold is? The sequence is SAGGMVKLFTWPPGQPEEFAEKLRKLPDVVEVTIEEVDGALRIRIKLKGKDVEVTTDPAGRWSVTVVGSAGG [r13_907_JUSTAS]
Response: 2.28

---

Experiment: folding stability dG unfold from chymotrypsin proteolysis; higher = more stable
Use 1 kcal/mol as the dividing line for folding stability dG unfold, with the line itself on the 1 side and lower values as 0.

# count of solved cases: 3
[
  {
    "Seq": "SAGKTIVVPTEEEAEKLAKELAEETGKEVEIVKVEKEKKKDGYEVYTIKVKLKDNNKTIEIKIVRPKEKSAG [r5_173_TrROS_Hall]",
    "Class assignment": 1
  },
  {
    "Seq": "SAIVLVVADDSPEEAVERARRFAATLRERLVREGYPDADVPIVVEVRAVPPPVPVPVRLPDGDEVVPAPSAG [r14_475_TrMRF]",
    "Class assignment": 1
  },
  {
    "Seq": "SAGGSAGGSKIEFTVPDNDELIEYIRKWFQDNGGQIKNIKIEPTPPNQVKVEIEINPGDPWFQSAGGSAGGS [r12_647_TrROS]",
    "Class assignment": 1
  }
]

Request: Given the entry SAGMVIELKTEEEAKAKAEEIAKKNPEANVTLVVTDPETGVKTVIPVKIESPKPKPEFDKKNGKYKDKGSAG [r5_870_JUSTAS] , answer whether its folding stability dG unfold meets or surpasses 1 kcal/mol.
Response: 0
